Sourced from patent US20220411517A1

system.under.test: T1, hIL-1RAP(1-367)_F-chLys_Avi (human, biotinylated (Avi tag) in SPR and ELISA binning; unlabeled in SET)
T1 construct: also called human IL-1RAcP (AG-12210)
protocol: ELISA binning; competitor: coated CAN04 FabCys-AviHis; 1.5 nM biotinylated human IL-1RAcP (AG-12210) pre-incubated with the titrated Fab; captured IL-1RAcP detected with streptavidin-AP
assay.readout: IC50 (read off the curve)

Lab note: measured IC50 (read off the curve) of CAN04_h_FabCys-AviH (Fab, V domains shown, Tested as disulphide-linked Fab with Avi and His tags; also called CAN04 in FabCys-AviHis format; CAN04 (R001031)) VH: QVQLVQSGAEVKKPGSSVKVSCKASGYAFSSSWMNWVRQAPGQGLEWMGRIYPGDGNTHYAQKFQGRVTLTADKSTSTAYMELSSLRSEDTAVYYCGEGYLDPMDYWGQGTLVTVSS VL: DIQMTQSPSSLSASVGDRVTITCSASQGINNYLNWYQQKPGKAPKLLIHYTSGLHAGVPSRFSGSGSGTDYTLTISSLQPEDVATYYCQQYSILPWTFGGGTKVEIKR was ~1 nM
